PROCEDURE_SUMMARY: Inducers of the Endoplasmic Reticulum Stress Response (ERSR) in human glioma: Validation (AID 504836)
CONDITIONS_USED: human glioma cells, ER stress response reporter; series mostly up to 38.3 µM
Active and inactive are the calls of the source. The call rests on the fitted dose curve; in most records, active means well fitted curve in the direction sought with a large enough effect; inconclusive means small, poorly fitted or top-dose-only effect, or effect the other way, or another doubt; inactive means no such curve, though single readings can be large or run the other way.
MEASURED_ENDPOINT: outcome

# count of solved cases: 10
>>> assay_value("NC1(C(=O)O)CC1")
"inactive"
>>> assay_value("CCCCCCCCCCCCCCCC(=O)OC(CC(=O)O)C[N+](C)(C)C (configuration not stated)")
"inactive"
>>> assay_value("N=C(N)SCCN")
"inactive"
>>> assay_value("COc1cc2c(cc1OC)C1CC(=O)C(CC(C)C)CN1CC2 (configuration not stated)")
"inactive"
>>> assay_value("Cc1ccc2c(c1)C(N1CCN(C)CC1)=Nc1cccnc1N2")
"inactive"
>>> assay_value("NC(=Nc1ccccc1)NC(=O)c1nc(Cl)c(N)nc1N")
"inactive"
>>> assay_value("CCNC(=O)[C@H]1O[C@@H](n2cnc3c(N)nc(NCCc4ccc(CCC(=O)O)cc4)nc32)[C@H](O)[C@@H]1O")
"inactive"
>>> assay_value("NC1CONC1=O (configuration not stated)")
"inactive"
>>> assay_value("NC(N)=NC(N)=Nc1cccc(Cl)c1")
"inactive"
>>> assay_value("CC1CCN(CC[C@H]2CCCN2S(=O)(=O)c2cccc(O)c2)CC1")
"inactive"

Provide only the value of recorded outcome for Cc1cccc(C)c1OCC(N)C(C)C (configuration not stated)
inactive

Provide only the value of recorded outcome for `CCCn1c(=O)c2[nH]c(C3CCCC3)nc2n(CCC)c1=O`
inactive

Provide only the value of recorded outcome for `Clc1nccc2c1ccc1ccccc12`
inactive
